- Test system: MS2 coat protein
- protocol.text: apparent KD of MS2 coat protein, switch OFF state (with FMN for OFF switches, without FMN for ON switches); designed switch direction (-1 OFF switch, 1 ON switch): 1; higher = weaker reporter binding
- setup.conditions: FMN input: 0 or 200 uM; Eterna round: R93 (includes R88 designs)
measurement.kind: apparent KD of MS2 coat protein

[ask] Which value of apparent KD of MS2 coat protein has been reported for AAGAGACAUGAGGAUCACCCAUGUAGGAUUAUGGGAGGAUAUACAAAGACGAGAGUCAGAGUAGAAGGCCUAGGAC [salish99-ss1-132(!)] in the records?
[reply] 53.8 nM

[ask] How about CAGAGACAUGAGGAUCACCCAUGUAGGAUUAUGGGAGGAUAUACAAAGACGAGAGUCAGAGUAGAAGGCCUAGGAG [salish99-ss1-143] ?
[reply] 48.6 nM

[ask] Try this sequence too: AAAUAAAUGACUCAGGAUAUGUCAGAGAAAACAUGAGGAUCACCCAUGUAAUAAUAACAUGUGUGACAGAAGGGAGUCAAUAAAU [LROPPY Same State 2 - v01_deltaG=.6]
[reply] 15 nM

[ask] Now try AAUAUACAUGAGGAUCACCCAUGUUAGGUGGGACUAGGAUAUCAAAAUAAAUAAAGAACAUGAGAAGGAGUAUAAA [JR_SS001_Sub017] .
[reply] 178 nM

[ask] Now try UAGAGAACAGGGUAGGAUAUGCAUGGUCGUACAUGAGGAUCACCCAUGUAGUCUAGAAAAUAAAUGCAGAAGGACCAAAAGAAAA [Edsodiin] .
[reply] 32 nM

[ask] Do the same for AAAAAAAAAACUGAGGAUAUCAGGGAUGGUACAUGAGGAUCACCCAUGUUGGCGGGCGAAGAAACUGAGAAGGCAGAAAAAAAAAA [JR_SameState2_Sub4] please
[reply] 79.6 nM

----------
- System: MS2 coat protein
- protocol.text: apparent KD of MS2 coat protein; designed switch direction (-1 OFF switch, 1 ON switch): -1; higher = weaker reporter binding
- setup.conditions: input ligand: none
Assign class by apparent KD of MS2 coat protein: not lower than 90 nM means t; lower than 90 nM means f.

[ask] Could you verify whether the entry CUCUCGUGAGGAUAUCUCCGCGAGAAUAAUGUUACACGCGAAGAGAAGGCACAUGAGGAUCACCCAUGUUAAAC [Eternabot (L1) Solution 31] (Eterna round: R97, puzzle: Exclusion 4) shows apparent KD of MS2 coat protein of no less than 90 nM?
[reply] f

[ask] Same thing, different sequence: CUGUAGUCAGGAUAUACAUGAGGAUCACCCAUGUAAAAUUUUAAUUUAAUUUGAAGGUGUAGAAGGGACCAGUC [Ex3 #26] (Eterna round: R97, puzzle: Exclusion 3)
[reply] f

[ask] For CAGUACUGAGGAUAUACAUGAGGAUCACCCAUGUGUUCCAGCUAGGAGACUAGCAAGUGUAGAAGGCAGUACUG [jl-ex3-4.01 salish99 mod] (Eterna round: R97, puzzle: Exclusion 3) then?
[reply] t

[ask] AAUUUACAUGAGGAUCACCCAUGUGAGGAUAUGGAUUCGCUGGCCGUAGCCAGUGGAUCCAGAAGGCGCAUGAU [JL-ex1-4.12] (Eterna round: R97, puzzle: Exclusion 1) ?
[reply] t

[ask] And for GCUGGUCGAGGAUAUACAUGAGGAUCACCCAUGUAGAUCAACCAGCUUCGGCUGGAAUGUAGAAGGCGACCAGC [E3/5-A4] (Eterna round: R97, puzzle: Exclusion 3) ?
[reply] f

From: the supplement of paper PMC9170038
